Origin of measurements: ChEMBL document CHEMBL1268870

System: Xenopus laevis
test.method.notes: Anesthetic potency in Xenopus laevis
Assay type: functional, organism-based
We begin with a simple list: items and their reported EC50.

record.smiles: CCOC(=O)c1cncn1[C@@H](C)c1ccc(C2(C(F)(F)F)N=N2)cc1
units.of.measure: µM
EC50: 4.9

record.smiles: CCOC(=O)c1cncn1[C@H](C)c1ccc(C2(C(F)(F)F)N=N2)cc1
units.of.measure: µM
EC50: 17.1
